Molecular target: UniProtKB O15527
Sequence (O15527 whole entry): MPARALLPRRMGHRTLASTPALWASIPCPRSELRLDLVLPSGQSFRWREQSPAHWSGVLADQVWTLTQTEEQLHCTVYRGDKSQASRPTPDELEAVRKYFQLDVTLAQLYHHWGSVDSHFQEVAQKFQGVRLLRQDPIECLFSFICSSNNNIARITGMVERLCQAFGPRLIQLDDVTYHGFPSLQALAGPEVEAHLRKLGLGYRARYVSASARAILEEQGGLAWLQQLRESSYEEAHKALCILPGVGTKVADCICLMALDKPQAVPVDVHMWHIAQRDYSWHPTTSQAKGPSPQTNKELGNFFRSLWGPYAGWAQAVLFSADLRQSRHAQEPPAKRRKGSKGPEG
Experiment: Differential scanning fluorimetry (DSF) thermal shift assay
Type: binding
Details: 99 μM
Binarize ∆Tm (K) at 0.05 K; below is met, at or above is not met.

O=C(NCc1ccn(-c2ccccc2)n1)c1cc(-c2ccccc2)no1 [ZINC000617287579]
met
O=S(=O)(Nc1ccc(Cl)cc1F)N1CCc2ccccc2C1 [ZINC000990255105]
met
O=C(NC1CN(C(=O)c2ccc(Cl)s2)C1)c1ccc(Cl)o1 [ZINC000357905855]
not met
CCc1ccc(C(=O)NC[C]2CS(=O)(=O)c3ccccc3O2)cc1 [ZINC001002782586]
met
C[C](NC(=O)c1ccc(C)nc1)c1cnn(-c2ccc(F)cc2)c1C [ZINC000142711832]
met
O=C(Nc1noc2c1CCCC2)[C@H]1Cc2ccccc21 [compound 5]
not met

Problem: For the molecule O=C(NCc1cnn(-c2ccccc2)c1)c1cc(C2CC2)no1 [ZINC000045518705] , is ∆Tm (K) under 0.05 K? met
